From: ChEMBL document CHEMBL1201862

For each entry below, report its GI50 value.
- Test system: KM-20L2
- PROTOCOL TEXT: NCI tumour cell line growth inhibition, 48 h
Calls of active or inactive are those of the source. Rule as the data show it: active = GI50 up to about 1.1 µM and inactive = higher.

q: Notebook: pull reported GI50 for KM-20L2, entry COC(=O)[C@H](C)[C@H]1CC[C@@](C)([C@H]2CC3C(C)(C)[C@H]4CCC(C)=C[C@H]4C[C@@]3(C)O2)OO1 (stereo partly specified)
a: 13.4 µM (inactive)

q: Notebook: pull reported GI50 for KM-20L2, entry NS(=O)(=O)c1ccc(NC(=O)Cc2nc3ccccc3s2)cc1
a: 18.7 µM (inactive)

q: Notebook: pull reported GI50 for KM-20L2, entry O=C(/C=C(\O)C(=O)O)/C=C(\O)c1ccc(Cl)cc1
a: > 100 µM (inactive)

q: Notebook: pull reported GI50 for KM-20L2, entry COc1ccc(OC)c2c1C(=O)C(Cl)=C(Cl)C2=O
a: 10.5 µM (inactive)

q: Notebook: pull reported GI50 for KM-20L2, entry CC1=Nc2ccccc2NC(c2ccoc2)C1 (stereo unspecified)
a: > 100 µM (inactive)

q: Notebook: pull reported GI50 for KM-20L2, entry NC(=O)Nc1cc(O)ccc1/N=N/c1ccc(S(=O)(=O)Nc2ccccn2)cc1
a: > 100 µM (inactive)

====

- Tested on: HCT-15
GI50 strictly less than 30 µM = condition met. Otherwise condition not met.

q: Take the compound N#CCc1nc(-c2cc3ccc(O)cc3oc2=O)cs1 and say whether its GI50 is less than 30 µM.
a: condition not met

q: Take the compound CN(C)CCN(/C(=N/c1ccccc1)N1CCCC1)c1ccccc1 and say whether its GI50 is less than 30 µM.
a: condition met

q: Take the compound COC(=O)c1ccc(-n2c(C)nc(=O)c(-c3ccccc3)c2C)cc1 and say whether its GI50 is less than 30 µM.
a: condition not met

q: Take the compound COc1ccc(N2C(=O)/C(=C/c3ccc(N(CCC#N)CCC#N)cc3)N=C2c2ccccc2)cc1 and say whether its GI50 is less than 30 µM.
a: condition not met

q: Take the compound COc1ccccc1/C=C1\NC(=S)N(/C=C2\C(=O)Oc3ccccc3C2=O)C1=O and say whether its GI50 is less than 30 µM.
a: condition not met

q: Take the compound COc1ccc2nc3cc(Cl)ccc3c(NCCCN(CCCl)CCCl)c2c1 and say whether its GI50 is less than 30 µM.
a: condition met

q: Take the compound COC(=O)C1OC(O[C@H]2CC[C@]3(C)[C@H]4CC=C5[C@@H]6CC(C)(C)CC[C@]6(C(=O)OC)CC[C@@]5(C)[C@]4(C)CC[C@H]3C2(C)C)C(O)C(O)C1O (stereo partly specified) and say whether its GI50 is less than 30 µM.
a: condition met

q: Take the compound CCN1CCc2sc3nc(S)n(C)c(=O)c3c2C1 and say whether its GI50 is less than 30 µM.
a: condition not met

q: Take the compound NC(=S)N/N=C/c1ccc(OC(=O)COc2ccccc2Cl)cn1 and say whether its GI50 is less than 30 µM.
a: condition not met

q: Take the compound N#C/C(C(=O)Nc1ccccc1)=C(/N)N1CCOCC1 and say whether its GI50 is less than 30 µM.
a: condition not met

====

- System: SNB-75
- PROTOCOL TEXT: NCI tumour cell line growth inhibition, 48 h
Calls of active or inactive are those of the source. Cut-off read from the data, not from the text of the source: active = GI50 up to about 1.1 µM and inactive = higher.
MEASUREMENT KIND: GI50

q: Which value of GI50 has been reported for COC1=C2C[C@H](O)C(C)C[C@@]2(OC)OC1=O (stereo partly specified) in the records?
a: > 100 µM (inactive)

q: Which value of GI50 has been reported for O=c1[nH]c2ccc(C(F)(F)F)cc2nc1-c1ccccc1 in the records?
a: > 100 µM (inactive)

q: Which value of GI50 has been reported for Cc1ncc([N+](=O)[O-])n1CC(O)Cn1cnc([N+](=O)[O-])n1 (stereo unspecified) in the records?
a: > 100 µM (inactive)

q: Which value of GI50 has been reported for COc1ccccc1/C=C1\NC(=S)N(/C=C2\C(=O)Oc3ccccc3C2=O)C1=O in the records?
a: 30.1 µM (inactive)

q: Which value of GI50 has been reported for Cc1c2c(cc3c1C(=O)C(O)=C([C@@H](C)CO)C3=O)C(C)(C)CCC2 in the records?
a: 21.6 µM (inactive)

q: Which value of GI50 has been reported for CC(=O)c1cccc(NC(=O)C(=O)Nn2c(N)nnc2N)c1 in the records?
a: > 100 µM (inactive)

q: Which value of GI50 has been reported for O=C1c2ccccc2-n2c1nc1ccc(Cl)cc1c2=O in the records?
a: 27.5 µM (inactive)

q: Which value of GI50 has been reported for C/C(=C\c1ccccc1)C(=O)NCc1ccc(C(=O)NCCC(C)C)cc1 in the records?
a: 21.9 µM (inactive)

q: Which value of GI50 has been reported for C[C@]12CCC3c4ccc(O)cc4CC[C@H]3C1CC(=O)N(N)C2=O (stereo partly specified) in the records?
a: > 100 µM (inactive)

q: Which value of GI50 has been reported for CN(C)c1nncc2[nH]nnc12 in the records?
a: > 100 µM (inactive)

q: Which value of GI50 has been reported for CC(C)(C)/N=C\N1CCC(C(c2ccccc2)c2ccccc2)CC1 in the records?
a: 21.9 µM (inactive)

====

For each entry below, report its GI50 value.
- Test system: OVCAR-4
- PROTOCOL TEXT: NCI tumour cell line growth inhibition, 48 h
The source made the active and inactive calls. Rule as the data show it: active = GI50 up to about 1.1 µM and inactive = higher.

q: Which value of GI50 has been reported for C=C1CCC2C(C)(CO)C(O)CCC2(C)C1C/C=C1/CCOC1=O (stereo not drawn) in the records?
a: > 100 µM (inactive)

q: Which value of GI50 has been reported for N#Cc1c(C#N)c(SSc2c(C#N)c(C#N)c(N)n2-c2ccccc2)n(-c2ccccc2)c1N in the records?
a: 2.25 µM (inactive)

q: Which value of GI50 has been reported for CCOC(=O)c1c(N2CCOCC2)[nH]c(=O)c(C(c2ccc(OC)cc2)c2c(O)c(C(=O)OCC)c(N3CCOCC3)[nH]c2=O)c1O in the records?
a: > 100 µM (inactive)

q: Which value of GI50 has been reported for CCOP(=O)(OCC)C(C)(CC)NC1=NC(C(F)(F)F)(C(F)(F)F)NC(=O)N1 (stereo not drawn) in the records?
a: > 100 µM (inactive)

q: Which value of GI50 has been reported for COc1ccc(CN(CCc2c[nH]c3ccccc23)Cc2ccc(OC)cc2)cc1 in the records?
a: 3.88 µM (inactive)

q: Which value of GI50 has been reported for O=C1N(CN2CCOCC2)CN(CN2CCOCC2)C(=O)N1Cc1ccc(CN2C(=O)N(CN3CCOCC3)CN(CN3CCOCC3)C2=O)cc1 in the records?
a: 35.7 µM (inactive)

q: Which value of GI50 has been reported for CSC(=S)N/N=C/c1ccccc1 in the records?
a: 24.3 µM (inactive)

q: Which value of GI50 has been reported for O=C(N/N=C/c1ccc(Cl)cc1)c1ccccc1Nc1ccccc1C(=O)N/N=C/c1ccc(Cl)cc1 in the records?
a: > 100 µM (inactive)

q: Which value of GI50 has been reported for CC(C)OP(=O)(OC(C)C)/C(=N/Nc1ccccc1[N+](=O)[O-])NCCN/C(=N\Nc1ccccc1[N+](=O)[O-])P(=O)(OC(C)C)OC(C)C in the records?
a: 48.1 µM (inactive)

q: Which value of GI50 has been reported for Cc1cn2c(=O)c3ncn(C4OC(CO)C(O)C4O)c3n(C)c2n1 (stereo not drawn) in the records?
a: > 100 µM (inactive)

q: Which value of GI50 has been reported for O=C(OC1OC2COC(=O)c3cc(O)c(O)c(O)c3-c3c(cc(O)c(O)c3O)C(=O)OC3C2OC(=O)[C@@]24CC(=O)[C@@](O)(OC25C(=O)O[C@H]2[C@@H](O)CO[C@@]25O)C2(O)Oc5c(O)c(O)cc(c5C24)C(=O)OC13)c1cc(O)c(O)c(O)c1 (stereo partly drawn) in the records?
a: 37.2 µM (inactive)

q: Which value of GI50 has been reported for CC1(C)S[C@H](CN)N[C@H]1C(=O)OC(c1ccccc1)c1ccccc1 in the records?
a: 27.3 µM (inactive)

q: Which value of GI50 has been reported for CCn1c(SC(C)C(=O)c2c(C)n(C)n(-c3ccccc3)c2=O)nc2ccccc2c1=O (stereo not drawn) in the records?
a: > 100 µM (inactive)

q: Which value of GI50 has been reported for Cc1ccc(C2=Nc3ccccc3SC(c3cccc([N+](=O)[O-])c3)C2)cc1 (stereo not drawn) in the records?
a: 27.4 µM (inactive)

q: Which value of GI50 has been reported for O=C1c2ccccc2C(=O)C1(Cl)C1(S(=O)(=O)O)c2ccccc2-c2ccccc21 in the records?
a: > 100 µM (inactive)

q: Which value of GI50 has been reported for CC1=Nc2ccccc2NC(c2ccoc2)C1 (stereo not drawn) in the records?
a: > 100 µM (inactive)

q: Which value of GI50 has been reported for CC(=O)OC[C@@H](OC(C)=O)[C@@H](OC(C)=O)[C@H]1OC[C@@H]2C[C@H]([C@H]1OC(C)=O)N(Cc1ccccc1)O2 in the records?
a: > 100 µM (inactive)

q: Which value of GI50 has been reported for COC(=O)c1ccc(-n2c(C)nc(=O)c(-c3ccccc3)c2C)cc1 in the records?
a: > 100 µM (inactive)
